This collection of values is drawn from PubChem BioAssay (NCI).

- Tested on: KM12 colon
- procedure.details: NCI tumour cell line growth inhibition, 48 h; in the data active = GI50 below about 0.43 µM; inactive = the rest
Classes used: label 1 = active, label 0 = inactive

[
  {
    "compound": "COc1cc(C2=NOC(c3cc(OC)c(OC)c(OC)c3)C2)ccc1OCCCCOc1cc2c(cc1OC)C(=O)N1CCC[C@H]1C=N2 (stereo partly specified)",
    "class.label": "label 1"
  },
  {
    "compound": "N#CSc1c[nH]c2cccc(/C=C/C(=O)/C=C(/C=C/c3cccc4[nH]cc(SC#N)c34)OB(F)F)c12",
    "class.label": "label 0"
  },
  {
    "compound": "CCOC(=O)[C]1([Bi]([CH3])[CH3])N=NC(C(=O)OC)=C1C(=O)OC (stereo unspecified)",
    "class.label": "label 0"
  },
  {
    "compound": "N#Cc1c(-c2ccc(F)cc2)nc(N/N=C/c2c[nH]c3ccccc23)nc1N1CCOCC1",
    "class.label": "label 0"
  },
  {
    "compound": "O=C1Nc2c(C(F)(F)F)cccc2[C@]1(c1ccc(O)cc1)c1ccc(OC(F)(F)F)cc1",
    "class.label": "label 0"
  },
  {
    "compound": "C=C1C(=O)O[C@H]2[C@H]1CC/C(COC(=O)c1ccc3ccccc3c1)=C\\CC[C@@]1(C)O[C@@H]21",
    "class.label": "label 0"
  }
]
